Give pEC50 for every item shown.
Target: α7-5HT3 Q79G (Homo sapiens, UniProt P36544, M226I/Q79G/T225I)
Construct: expressed in transfected cells; host or cells: HEK 293 cells (ATCC CRL-1573)
Sequence (P36544 with tags, fused parts or gaps Q79G/T225I/M226I): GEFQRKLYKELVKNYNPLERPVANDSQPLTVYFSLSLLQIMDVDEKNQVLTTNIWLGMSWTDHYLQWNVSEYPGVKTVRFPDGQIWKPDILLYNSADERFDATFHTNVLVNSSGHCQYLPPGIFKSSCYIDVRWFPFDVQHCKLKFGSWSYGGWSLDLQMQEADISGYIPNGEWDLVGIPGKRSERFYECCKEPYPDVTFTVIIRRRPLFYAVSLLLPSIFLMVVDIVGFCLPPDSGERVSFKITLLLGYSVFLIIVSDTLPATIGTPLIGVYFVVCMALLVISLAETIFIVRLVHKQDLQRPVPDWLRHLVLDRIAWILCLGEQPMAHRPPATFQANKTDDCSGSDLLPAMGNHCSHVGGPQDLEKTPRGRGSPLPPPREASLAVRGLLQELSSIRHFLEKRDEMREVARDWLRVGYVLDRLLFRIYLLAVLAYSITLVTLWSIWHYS
Assay: fluorescence membrane potential (MP) assay, HEK 293 cells
Assay type: cell-based, human/mouse
Conditions: read-out: EC50-MP; α7 Q79G, IPD 5HT3; value (s.e.m.)
Structures can show the parent of a compound that is named as a salt.
# reply with the number alone; pEC50 is -log10 of concentration in mol/L

Quick one: pEC50 for CCCc1ccc(C(=O)N[C@@H]2CN3CCC2CC3)cc1 [Compound 165S, TFA] ?
5.72

Quick one: pEC50 for O=C(N[C@@H]1CN2CCC1CC2)c1ccc(C(F)(F)F)cc1 [Compound 22S] ?
6.10
